Where do the numbers come from? From patent US20260042764A1.

target: Avi-KRAS WT (1-169) GppNHp/RAF1 RBD-3xFLAG (52-151) (Homo sapiens, UniProt P01116); construct: Avi-KRAS WT (1-169); test: Raf1-KRAS WT-GppNHP disruption HTRF assay (Biological Example 1); format: binding; settings: KRAS WT-GppNHp/RAF1 RBD HTRF
Sequence (P01116 1-169 isoform P01116-2): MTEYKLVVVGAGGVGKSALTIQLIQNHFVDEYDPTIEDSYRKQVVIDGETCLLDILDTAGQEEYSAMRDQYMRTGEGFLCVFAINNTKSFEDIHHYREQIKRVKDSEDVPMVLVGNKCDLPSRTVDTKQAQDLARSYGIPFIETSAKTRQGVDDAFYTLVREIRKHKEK
Measurement Kind: IC50

Q: Record request: IC50 value, item CCC(=O)N1CC[C@](C)(N(C)c2nc(OC[C@@]34CCCN3C[C@H](F)C4)nc3c(F)c(-c4ccc(F)c5sc(N)c(C#N)c45)c(C(F)(F)F)cc23)C1 [Compound 506]
Result: 1000 to 10000 nM

Q: Now the compound CCC(=O)N1C[C@H](N(CC)c2nc(OC[C@@]34CCCN3C[C@H](F)C4)nc3c(F)c(-c4ccc(F)c5sc(N)c(C#N)c45)c(C(F)(F)F)cc23)C[C@@H]1C (atropisomer, axis not shown) [Compound 533]
Result: 100 to 1000 nM

Q: Please give the result for CC(=O)N1CC[C@@](C)(N(C)c2nc(OC[C@@]34CCCN3C[C@H](F)C4)nc3c(F)c(-c4ccc(F)c5sc(N)c(C#N)c45)c(C(F)(F)F)cc23)[C@H]1C [Compound 342] too.
Result: 100 to 1000 nM

Q: Param item: CCC(=O)N1CC[C@@H]2[C@H]1CN2c1nc(OC[C@@]23CCCN2C[C@H](F)C3)nc2c(F)c(-c3ccc(F)c4sc(N)c(C#N)c34)c(C(F)(F)F)cc12 [Compound 515]
Result: 100 to 1000 nM

Q: Again, but for N#Cc1c(N)sc2c(F)ccc(-c3c(C(F)(F)F)cc4c(N5CC6C(=O)NC(=O)C6C5)nc(OC[C@@]56CCCN5C[C@H](F)C6)nc4c3F)c12 (some centres unmarked) [Compound 308]
Result: 100 to 1000 nM
